tgt: UniProt P31213
Sequence (P31213 1-254): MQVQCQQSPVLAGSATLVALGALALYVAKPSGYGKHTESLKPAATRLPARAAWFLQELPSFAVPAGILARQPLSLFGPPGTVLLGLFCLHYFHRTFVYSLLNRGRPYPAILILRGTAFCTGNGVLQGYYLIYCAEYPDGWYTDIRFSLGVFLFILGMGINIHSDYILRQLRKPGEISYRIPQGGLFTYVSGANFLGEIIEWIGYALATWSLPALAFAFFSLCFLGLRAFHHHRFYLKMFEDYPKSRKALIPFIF
pIC50: −log10 of the molar value.
readout label: pIC50

>>> recorded_value("C[C@]12CC[C@H]3[C@@H](CCC4=CC(=O)CC[C@@H]43)[C@@H]1CC[C@]2(F)/C=N/O [Verbindung 7]")
6.61
